- tested.on: Cellular tumor antigen p53 (Homo sapiens) (UniProt P04637)
- Sequence (P04637 whole entry, looked up): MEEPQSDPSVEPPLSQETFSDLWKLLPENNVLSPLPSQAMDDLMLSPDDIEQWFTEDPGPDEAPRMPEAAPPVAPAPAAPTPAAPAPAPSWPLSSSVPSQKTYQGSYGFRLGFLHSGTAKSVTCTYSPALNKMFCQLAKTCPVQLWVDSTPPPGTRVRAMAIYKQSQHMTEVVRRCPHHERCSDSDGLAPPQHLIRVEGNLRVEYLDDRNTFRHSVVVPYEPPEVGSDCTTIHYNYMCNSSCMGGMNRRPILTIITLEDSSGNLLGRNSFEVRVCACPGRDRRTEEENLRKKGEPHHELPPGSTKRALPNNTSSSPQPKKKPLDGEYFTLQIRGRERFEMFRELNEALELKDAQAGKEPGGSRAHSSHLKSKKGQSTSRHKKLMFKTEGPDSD
- assay.remarks: Primary qHTS for small molecule compounds that upregulate eGFP-tagged delta133p53alpha (in N-terminal) cells. (AID 2060322); further: potency means the concentration at half of the fitted maximal effect; nearly all actives have a fitted effect of over 75% in size
- run.conditions: NCI-H358 eGFP-delta133p53alpha fluorescence, 24 h
Inconclusive results are not listed. Activity calls are given as the source filed them. The call rests on the fitted dose curve; in most records, active means well fitted activation curve with a large enough effect; inconclusive means small, poorly fitted or top-dose-only effect; inactive means no such curve, though single readings can be large or run the other way. Starred links: 1 amine or outer side, 2 acyl side, 3 side chain; linkers in the order of their positions; H or OH if unused. Positions of bridges follow the written chain, without caps; N, C: chain ends. Non-standard residues stand in square brackets, D forms with d. Residues, ends and D or L forms follow the SMILES beside them. Chains are numbered I, II in the order given. Actinocin(9to1) = Cc1c2oc3c(C)ccc(C(=O)[*:1])c3nc-2c(C(=O)[*:2])c(N)c1=O; NMeV = CN[C@H](C(=O)O)C(C)C; Sar = CNCC(=O)O
Hi there, I'd appreciate the recorded Potency for every entry that follows.

Exercise: Entry `Cc1ccc(S(=O)(=O)c2ccc([N+](=O)[O-])o2)cc1` : reported Potency = ?
Key: 8.49 µM (active)

Exercise: Request the reported Potency associated with `Nc1cc(C(F)(F)F)c(-c2cc(N3CCOCC3)nc(N3CCOCC3)n2)cn1`
Key: 1.69 µM (active)

Exercise: So what's the measured Potency for this one? `NC(=O)Nc1cc(-c2cccc(F)c2)sc1C(=O)N[C@H]1CCCNC1`
Key: 8.49 µM (active)

Exercise: Data request, read-out Potency, for CC12C(=O)OC(=O)C1(C)C1CCC2O1 (configuration not stated)
Key: 1.69 µM (active)

Exercise: Consider the molecule Cc1c2oc3c(C)ccc(C(=O)N[C@@H]4C(=O)N[C@H](C(C)C)C(=O)N5CCC[C@H]5C(=O)N(C)CC(=O)N(C)[C@@H](C(C)C)C(=O)O[C@@H]4C)c3nc-2c(C(=O)N[C@@H]2C(=O)N[C@H](C(C)C)C(=O)N3CCC[C@H]3C(=O)N(C)CC(=O)N(C)[C@@H](C(C)C)C(=O)O[C@@H]2C)c(N)c1=O (I: T[dV]P[Sar][NMeV] / II: T[dV]P[Sar][NMeV]; ester I:1-I:C, II:1-II:C; linker I:N-II:N via Actinocin(9to1)) and give its measured Potency.
Key: 0.011 µM (active)

Exercise: Fill blank: measured Potency of the molecule `C1N2CN3CN1CN(C2)C3` is ____.
Key: 27.6 µM (active)

Exercise: Give the measured Potency of CN1c2ccccc2C(=O)N2CCC3c4ccccc4NC3C21 (configuration not stated) .
Key: 1.66 µM (active)

Exercise: Look at this molecule and give its reported Potency. `CS(=O)(=O)CCNCc1ccc(-c2ccc3ncnc(Nc4ccc(OCc5cccc(F)c5)c(Cl)c4)c3c2)o1`
Key: 26.9 µM (active)

Exercise: I'd like to know its Potency. The molecule in question is `Cc1cc(Nc2ncc3c(n2)N(C)C(=O)N(c2cc(NC(=O)c4cccc(C(F)(F)F)c4)ccc2C)C3)n(C)n1`
Key: 0.432 µM (active)

Exercise: What value of measured Potency is listed for `Nc1nc(NC2CC2)cc(-c2cccc(Cl)c2Cl)n1` ?
Key: 6.01 µM (active)

Exercise: Item `COc1cc2nccc(Oc3ccc(NC(=O)NC4CC4)c(Cl)c3)c2cc1C(N)=O` has what recorded Potency?
Key: 26.9 µM (active)

Exercise: Look up Potency: `CC1=C(CO)C(=O)O[C@@H]([C@@H](C)[C@H]2CC[C@H]3[C@@H]4C[C@H]5O[C@]56[C@@H](O)C=CC(=O)[C@]6(C)[C@@H]4CC[C@]23C)C1`
Key: 3.85 µM (active)

Exercise: Query: Potency; subject: CCC(C)/C=C(C)/C=C/C1=CC2=CC(=O)C3(C)OC(C)(O)C(C(=O)OC)C3C2=CO1 (configuration not stated)
Key: 13.1 µM (active)

Exercise: Quick one: Potency for CCC(C)(OC(C)=O)C(=O)O[C@H]1[C@H](OC(C)=O)[C@]2(CO)[C@H](O)[C@H](O)[C@]3(C)C(=CCC4[C@@]5(C)CC[C@H](O[C@@H]6O[C@H](C(=O)O)[C@@H](O)[C@H](O[C@@H]7OC[C@H](O)[C@H](O[C@@H]8OC[C@H](O)[C@H](O)[C@H]8O)[C@H]7O)[C@H]6O[C@@H]6O[C@H](CO)[C@@H](O)[C@H](O)[C@H]6O)C(C)(C)C5CC[C@]43C)[C@@H]2CC1(C)C (some centres not stated) ?
Key: 3.2 µM (active)

Exercise: What value of measured Potency is listed for `O=C(CCl)Nc1cccc(NC2=NS(=O)(=O)c3ccccc32)c1` ?
Key: 26.9 µM (active)

Exercise: So what does the record say about Potency for `CCCCc1nc2cc(/C=C/C(=O)NO)ccc2n1CCN(CC)CC` ?
Key: 27.3 µM (active)

Exercise: Please look up its Potency: `CN(C)c1ccc2nc3ccc(=[N+](C)C)cc-3sc2c1`
Key: 17.4 µM (active)

Exercise: Endpoint output: Potency of `CC1(C)OC2=C(C(=O)c3ccccc3C2=O)[C@H](NCc2ccccc2)[C@H]1O` . Value?
Key: 24.3 µM (active)

Exercise: For `CNC(=O)c1ccc(Nc2ncc(C(F)(F)F)c(NCc3nccnc3N(C)S(C)(=O)=O)n2)cc1` , what is its reported Potency?
Key: 12 µM (active)

Exercise: Requested read-out: Potency. Entry: `CN(C)Cc1c(C(=O)NCCOc2ccc(C(=O)NO)cc2)oc2ccccc12`
Key: 21.7 µM (active)

Exercise: Item `COc1ccc(S(=O)(=O)ON=C2C=C(C)C(=O)C(C)=C2)cc1` has what recorded Potency?
Key: 34.3 µM (active)

Exercise: Item under review: `CCc1ccc(C(=O)Nc2cc(CN3CCN(C)CC3)cc(C(F)(F)F)c2)cc1C#Cc1cnc2ccnn2c1` . Reported Potency?
Key: 19 µM (active)
